System: SK-OV-3
METHOD DESCRIPTION: NCI tumour cell line growth inhibition, 48 h
Activity calls are given as the source filed them. Cut-off read from the data, not from the text of the source: active = GI50 up to about 1.1 µM and inactive = higher. Where a SMILES comes first, the peptide text is derived from it. The star is where a group is joined. Boc = CC(C)(C)OC(=O)*
PROPERTY LABEL: GI50

Recorded GI50 (compound `C[n+]1cn(-c2nc3ccccc3nc2[N-]S(=O)(=O)c2ccccc2)c2ccccc21` ): > 100 µM (inactive)

Recorded GI50 (compound CN(C)C(=O)OC(Cn1cncn1)c1ccc(Cl)cc1Cl (stereo not given) ): > 100 µM (inactive)

Recorded GI50 (compound `CC(=O)Oc1c(OC(C)C)cc(=O)n2ccsc12` ): > 100 µM (inactive)

Recorded GI50 (compound `OCCNCNc1nc(NCNCCO)nc(N(CNCCO)CNCCO)n1` ): > 43.7 µM (inactive)

Recorded GI50 (compound O=C1CC2CC=C[C@H]3c4cc5c(cc4C(=O)N1C23)OCO5 (stereo not given in full) ): > 50 µM (inactive)

Recorded GI50 (compound CO[C@H]1C=CO[C@@]2(C)Oc3c(C)c(O)c4c(O)c(c(CN5CCN(C)CC5)c(O)c4c3C2=O)NC(=O)/C(C)=C\C=C[C@H](C)[C@H](O)C(C)[C@@H](O)C(C)[C@H](OC(C)=O)[C@@H]1C (stereo not given in full) ): > 100 µM (inactive)

Recorded GI50 (compound `O=C1C=C(Nc2ccc(Cl)cc2C(=O)c2ccccc2)c2ccccc2C1=O` ): > 100 µM (inactive)

Recorded GI50 (compound `SCCSCCCSCCS` ): > 100 µM (inactive)

Recorded GI50 (compound `O=C(N/N=C/c1ccc(O)cc1)NNCCO` ): > 100 µM (inactive)

Recorded GI50 (compound COC(=O)C1=C(\O)C[C@@]2(C)CC[C@@H](C(=O)OC)C2C/C=C\1C(=O)OC (stereo not given in full) ): > 100 µM (inactive)

Recorded GI50 (compound CN1CCOC1(C)CO (stereo not given) ): > 100 µM (inactive)

Recorded GI50 (compound NCCC1CN(C(=O)OCc2ccccc2)c2ccccc21 (stereo not given) ): > 42.4 µM (inactive)

Recorded GI50 (compound `NNC(=O)c1c(SCc2ccccc2)nc2c3ccccc3ccn12` ): 27.1 µM (inactive)

Recorded GI50 (compound CCC1CN(C(=O)c2ccccc2)C(Cc2c[nH]c3ccccc23)C(=O)C1CC(=O)OC (stereo not given) ): > 100 µM (inactive)

Recorded GI50 (compound `Cc1ccc2c(c1)CN1c3ccc(C)cc3CN2C1c1ccccc1O` ): > 100 µM (inactive)

Recorded GI50 (compound `CCOC(=O)NC(=O)c1cn(CCCCCCOC(=O)NCCCCCCNC(=O)OCCCCCCn2cc(C(=O)NC(=O)OCC)c(=O)[nH]c2=O)c(=O)[nH]c1=O` ): > 100 µM (inactive)

Recorded GI50 (compound `CCOC(=O)c1c(SC(=O)c2cc(OC)c(OC)c(OC)c2)n(-c2ccccc2)c(=S)n(-c2ccccc2)c1=O` ): > 100 µM (inactive)

Recorded GI50 (compound CC1(C)OC2C(CO)OC(N/C(=N/C#N)Oc3ccccc3)C2O1 (stereo not given) ): > 100 µM (inactive)

Recorded GI50 (compound `O=S(=O)(O)c1ccc(Nc2ccnc3ccccc23)cc1` ): > 100 µM (inactive)

Recorded GI50 (compound `O=C1c2ccc3cc(CCl)cc(O)c3c2C(=O)c2cccc(O)c21` ): > 10 µM (inactive)

Recorded GI50 (compound COC1OC(C)C(OC(=O)C(C)(C)C)C(OS(=O)(=O)c2ccc(C)cc2)C1OS(=O)(=O)c1ccc(C)cc1 (stereo not given) ): > 100 µM (inactive)

Recorded GI50 (compound COC(=O)N/N=C(/c1nc2ccc([N+](=O)[O-])cc2nc1O)C(O)c1ccc(OC)c(OC)c1 (stereo not given) ): > 100 µM (inactive)

Recorded GI50 (compound `O=c1[nH]c(-c2ccc([N+](=O)[O-])cc2)nc2ccc(Cl)cc12` ): 77.3 µM (inactive)

Recorded GI50 (compound `Cc1cc(N(CCC#N)CCC#N)ccc1/C=C1\SC(=S)NC1=O` ): 21.5 µM (inactive)

Recorded GI50 (compound CC(NC(=O)C1CCCN1C(=O)CNC(=O)OC(C)(C)C)C(=O)O (stereo not drawn) (Boc-Gly-Pro-Ala-OH; configuration not given here) ): > 100 µM (inactive)

Recorded GI50 (compound `Cc1nc(-c2cc3c(ccc4ccccc43)oc2=O)cc2c1c(=O)oc1ccc3ccccc3c12` ): > 100 µM (inactive)

Recorded GI50 (compound COc1cc([C@@H]2OC[C@@H]3C(c4cc(OC)c5c(c4)OCO5)OC[C@@H]32)cc(OC)c1OC (stereo not given in full) ): > 100 µM (inactive)

Recorded GI50 (compound COc1ccc(C2CC(C)=Nc3c(O)nc(S)nc3N2)cc1 (stereo not given) ): 18.1 µM (inactive)

Recorded GI50 (compound `CSc1c(C(=O)Nc2ccc(C)cc2)c(N)nn1-c1ccccc1` ): 64.6 µM (inactive)

Recorded GI50 (compound `CC(=O)Oc1cc(OC(C)=O)c2c(C)cc(=O)oc2c1` ): > 100 µM (inactive)

Recorded GI50 (compound CC1(c2ccc(Cl)cc2)N=C(NCCO)c2ccccc21 (stereo not given) ): 88.7 µM (inactive)

Recorded GI50 (compound `COc1ccccc1NS(=O)(=O)c1cc(C(C)(C)C)ccc1OCCOc1ccc(C(C)(C)C)cc1S(=O)(=O)Nc1ccccc1OC` ): > 100 µM (inactive)

Recorded GI50 (compound CC1OC(Oc2c(-c3cc(O)c(O)c(O)c3)oc3cc(O)cc(O)c3c2=O)C(O)C(O)C1O (stereo not given) ): > 100 µM (inactive)

Recorded GI50 (compound `CCOC(=O)CC[C@H](NC(=O)N[C@H](C)c1ccccc1)C(=O)OCC` ): > 100 µM (inactive)

Recorded GI50 (compound `N#Cc1cnc(-n2[nH]c3c(c2=O)CCCC3)[nH]c1=O` ): 75.3 µM (inactive)

Recorded GI50 (compound CCOC(=O)C1C=C2O[C@@H]3OC4(CCCCC4)O[C@@H]3C2[C@H]2C(=O)C=CC(=O)[C@@]12C(=O)OC (stereo not given in full) ): 18.2 µM (inactive)

Recorded GI50 (compound COc1ccc2c(c1)C1OCCNC1CC2 (stereo not given) ): > 100 µM (inactive)

Recorded GI50 (compound `COc1ccc2c3c([nH]c2c1)[C@H]1C[C@H]2[C@H](C[C@@H](O)[C@H](OC)[C@H]2C(=O)O)CN1CC3` ): > 100 µM (inactive)

Recorded GI50 (compound `CCN(CC)C(=S)SNCCc1ccc(S(N)(=O)=O)cc1` ): 25.4 µM (inactive)

Recorded GI50 (compound `C=CC[C@H]1O[Si](C(C)(C)C)(C(C)(C)C)[C@H](C)[C@H]1C` ): > 100 µM (inactive)
